Test: chemical genetic growth profiling, strain panel (AID 1159580);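 also: tested at 20 µM; growth read once vehicle control cultures reached saturation at 30 °C; 1 = growth at the plate median or of vehicle wells; lower values mean less growth of the strain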
Settings: S. cerevisiae deletion strains, growth OD, locus YOR080W, strain dia2
Among all 5,500 compounds or so, about 2,000 (36%) were called active. Roughly 18% stayed inconclusive and do not appear here. Rule as the data show it: active = normalized growth mostly below about 0.91 (no sharp cut-off); inconclusive = no clear call, values can overlap the other calls; inactive = mostly above about 0.92. Some of the results follow.
Tick one outcome: True for active, False for inactive

{"columns": ["molecule", "assigned-class"],
 "data": [
  ["O=c1c(-c2ccccc2)coc2cc(O)cc(O)c12", "False"],
  ["CCN1CCN(c2cc3c(cc2F)c(=O)c(C(=O)O)cn3C2CC2)CC1", "False"],
  ["O=c1c2ccccc2[se]n1-c1ccccc1", "True"],
  ["O=c1c2ccccc2oc2ccccc12", "False"],
  ["O=c1cc(-c2ccc(O)cc2)oc2ccc(O)cc12", "False"],
  ["COc1ccc(-c2coc3cc(OC(C)=O)cc(OC(C)=O)c3c2=O)cc1", "False"],
  ["O=c1c(-c2cc(O)c(O)c(O)c2)coc2cc(O)c(O)c(O)c12", "False"],
  ["CC1(C)O[C@@H]2CC3C4C[C@H](F)C5=CC(=O)C=CC5(C)C4C(O)CC3(C)[C@]2(C(=O)CO)O1 (stereo not given in full)", "False"]
]}

Prompt line: Entry O=C1CCc2cc(OCCCCc3nnnn3C3CCCCC3)ccc2N1 : call = ?
Response line: False

Prompt line: Entry O=C(/C=C/c1ccccc1)c1ccc(O)cc1 : call = ?
Response line: True

Prompt line: Entry NCCc1ccc(O)cc1 : call = ?
Response line: False

Prompt line: Entry O=c1cc(-c2cccc(O)c2)oc2ccc(O)cc12 : call = ?
Response line: False

Prompt line: Entry COc1cc2cc[n+]3cc4c(OC)c(OC)ccc4cc3c2cc1OC : call = ?
Response line: False

----------
Assay: chemical genetic growth profiling, strain panel (AID 1159580)
Settings: S. cerevisiae deletion strains, growth OD, locus YER167W, strain BCK2, active compounds read low
Screen size: about 5,500 compounds; about 2,000 (36%) were called active. Roughly 18% stayed inconclusive and do not appear here. This is one part of the list.
assay-endpoint: normalized growth
Respond using a number only.

Before answering, review these 5 worked examples.
{"columns": ["molecule", "normalized growth"],
 "data": [
  ["COc1cc([C@@H]2c3cc4c(cc3[C@H](OC(C)=O)[C@H]3COC(=O)[C@H]23)OCO4)cc(OC)c1OC", 0.998],
  ["COc1ccc(C(=O)/C=C/c2ccccc2)cc1", 0.994],
  ["CCCN1C[C@H](CSC)C[C@@H]2c3cccc4[nH]cc(c34)C[C@H]21", 1],
  ["CC(C)c1ccc2c(c1O)CC[C@H]1C3=C(CC[C@]21C)C(=O)OC3", 0.781],
  ["CN(C)CC/C=C1/c2ccccc2COc2ccccc21", 1.01]
]}

Prompt line: State its normalized growth: CN(C)CCC=C1c2ccccc2CCc2ccccc21
Response line: 1.01

Prompt line: State its normalized growth: Cn1nnnc1SCC1=C(C(=O)O)N2C(=O)C(NC(=O)C(O)c3ccccc3)C2SC1 (stereo not given)
Response line: 1.02

----------
Each item that follows carries a reported normalized growth.
Test: chemical genetic growth profiling, strain panel (AID 1159580);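 also: tested at 20 µM; growth read once vehicle control cultures reached saturation at 30 °C; 1 = growth at the plate median or of vehicle wells; lower values mean less growth of the strain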
Settings: S. cerevisiae deletion strains, growth OD, locus YDR297W, strain sur2, active compounds read low
Out of some 5,500 compounds screened, about 2,000 (36%) were called active. Roughly 18% stayed inconclusive and do not appear here. The list shows a part of the results.

Before answering, review these 3 worked examples.
{"columns": ["compound", "normalized growth"],
 "data": [
  ["CC(=O)O[C@@H]1CC2C(C)(C)[C@H](O)C[C@H](O)[C@]2(C)C2CC[C@@]3(C)[C@H](c4ccoc4)OC(=O)[C@H]4O[C@]43[C@@]21C (stereo partly drawn)", "0.996 (inactive)"],
  ["CC(=O)O[C@@H]1CC2C(C)(C)CCC(=O)[C@]2(C)C2CC[C@@]3(C)[C@H](c4ccoc4)OC(=O)C4OC43[C@@]21C (stereo partly drawn)", "1 (inactive)"],
  ["CC(C)=CCc1c2c(c(O)c3c(=O)c(O)c(-c4ccccc4)oc13)C=CC(C)(C)O2", "0.821 (active)"]
]}

Prompt line: State its normalized growth: CCN1CCN(c2cc3c(cc2F)c(=O)c(C(=O)O)cn3C2CC2)CC1
Response line: 1.01 (inactive)

Prompt line: State its normalized growth: O=c1cc(-c2cccc(O)c2)oc2ccc(O)cc12
Response line: 0.953 (inactive)

Prompt line: State its normalized growth: O=c1c2ccccc2oc2ccccc12
Response line: 0.945 (inactive)

Prompt line: State its normalized growth: CC(=O)O[C@H]1C[C@H](O[C@H]2[C@@H](O)C[C@H](O[C@H]3[C@@H](O)C[C@H](O[C@H]4CC[C@@]5(C)C(CCC6C5C[C@@H](O)[C@]5(C)[C@@H](C7=CC(=O)OC7)CC[C@]65O)C4)O[C@@H]3C)O[C@@H]2C)O[C@H](C)[C@H]1O[C@@H]1O[C@H](CO)[C@@H](O)[C@H](O)[C@H]1O (stereo partly drawn)
Response line: 0.994 (inactive)

Prompt line: State its normalized growth: COc1cc([C@@H]2c3cc4c(cc3[C@H](O)[C@H]3COC(=O)[C@@H]23)OCO4)cc(OC)c1OC
Response line: 1.03 (inactive)

Prompt line: State its normalized growth: O=C1c2c(O)ccc(O)c2C(=O)c2c(NCCNCCO)ccc(NCCNCCO)c21
Response line: 0.885 (active)

Prompt line: State its normalized growth: O=C1CC[C@]23C=CC(=O)NCCCCNCCCNC(=O)/C=C/c4ccc(c2c4)O[C@@H]3C1
Response line: 1.01 (inactive)

Prompt line: State its normalized growth: CCn1cc(C(=O)O)c(=O)c2cc(F)c(N3CCNCC3)cc21
Response line: 0.992 (inactive)

----------
Assay: chemical genetic growth profiling, strain panel (AID 1159580);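 also: tested at 20 µM; growth read once vehicle control cultures reached saturation at 30 °C; 1 = growth at the plate median or of vehicle wells; lower values mean less growth of the strain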
Conditions: S. cerevisiae deletion strains, growth OD, locus YJL115W, strain asf1, active compounds read low
The campaign covered roughly 5,500 compounds. About 2,000 (36%) were called active. Roughly 18% stayed inconclusive and do not appear here. The list shows a part of the results.
assay-endpoint: normalized growth
Respond using a number only.

Before answering, review these 2 worked examples.
{"columns": ["molecule", "assay-endpoint", "observed-value"],
 "data": [
  ["CNCCC=C1c2ccccc2CCc2ccccc21", "normalized growth", 0.961],
  ["CCCCC1C(=O)N(c2ccccc2)N(c2ccccc2)C1=O", "normalized growth", 0.99]
]}

Prompt line: State its normalized growth: CCC(CCC(C)[C@H]1CCC2C3CC=C4C[C@@H](O)CC[C@]4(C)C3CC[C@@]21C)C(C)C (some centres undefined)
Response line: 1

Prompt line: State its normalized growth: NCCc1ccc(O)cc1
Response line: 0.963

Prompt line: State its normalized growth: CC(=O)[C@H]1CCC2C3CC=C4C[C@@H](OC(=O)CCC(=O)O)CC[C@]4(C)C3CC[C@@]21C (some centres undefined)
Response line: 0.99

Prompt line: State its normalized growth: NS(=O)(=O)c1cc2c(cc1C(F)(F)F)NCNS2(=O)=O
Response line: 1.01

Prompt line: State its normalized growth: C=C1C(N)CC2CC1C2(C)C (centres undefined)
Response line: 0.99

Prompt line: State its normalized growth: CCCCCCCCCCCCCCCC[n+]1ccccc1
Response line: 0.0684

Prompt line: State its normalized growth: CC(=O)Oc1ccc(-c2cc(=O)c3c(OC(C)=O)cc(OC(C)=O)cc3o2)cc1
Response line: 0.954

Prompt line: State its normalized growth: O=c1c(-c2ccc(O)cc2)coc2cc(O)cc(O)c12
Response line: 0.999

----------
Each item that follows carries a reported normalized growth.
Assay: chemical genetic growth profiling, strain panel (AID 1159580);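 also: tested at 20 µM; growth read once vehicle control cultures reached saturation at 30 °C; 1 = growth at the plate median or of vehicle wells; lower values mean less growth of the strain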
Conditions: S. cerevisiae deletion strains, growth OD, locus YER155C, strain BEM2 (second series), active compounds read low
About 2,000 (36%) of roughly 5,500 compounds were called active. Not shown: some 18% with an inconclusive outcome. The list shows a part of the results.

Before answering, review these 5 worked examples.
{"columns": ["compound", "assay-endpoint", "observed-value"],
 "data": [
  ["CN1CCOC(c2ccccc2)c2ccccc2C1 (configuration not stated)", "normalized growth", "1.01 (inactive)"],
  ["CC(=O)OCC(=O)[C@@]1(O)CCC2C3CC[C@@H]4C[C@H](O)CC[C@]4(C)C3C(=O)C[C@@]21C (some centres not stated)", "normalized growth", "1.03 (inactive)"],
  ["Nc1nc(N)c2nc(-c3ccccc3)c(N)nc2n1", "normalized growth", "0.957 (inactive)"],
  ["S=c1ccss1", "normalized growth", "0.979 (inactive)"],
  ["Cn1c(=O)c2[nH]c(C3CCCC3)nc2n(C)c1=O", "normalized growth", "0.961 (inactive)"]
]}

Prompt line: State its normalized growth: CC1=C2C(=CO[C@H](C)[C@H]2C)C(=O)C(C(=O)O)=C1O
Response line: 0.938 (inactive)

Prompt line: State its normalized growth: CC(=O)Oc1ccc(-c2cc(=O)c3c(OC(C)=O)cc(OC(C)=O)cc3o2)cc1
Response line: 0.957 (inactive)

Prompt line: State its normalized growth: CC(=O)[C@H]1CCC2C3CC=C4C[C@@H](O)CC[C@]4(C)C3CC[C@@]21C (some centres not stated)
Response line: 0.774 (active)

Prompt line: State its normalized growth: CC(=O)OCC(=O)[C@H]1CCC2C3CC=C4C[C@@H](O)CC[C@]4(C)C3CC[C@@]21C (some centres not stated)
Response line: 0.337 (active)

Prompt line: State its normalized growth: CC(=O)[C@H]1CCC2C3CC=C4C[C@@H](OC(=O)CCC(=O)O)CC[C@]4(C)C3CC[C@@]21C (some centres not stated)
Response line: 0.842 (active)

Prompt line: State its normalized growth: COc1ccc(C(=O)/C=C/c2ccccc2)cc1
Response line: 0.268 (active)

Prompt line: State its normalized growth: CCC(CCC(C)[C@H]1CCC2C3CC=C4C[C@@H](O)CC[C@]4(C)C3CC[C@@]21C)C(C)C (some centres not stated)
Response line: 1.04 (inactive)
